This collection of values is drawn from paper PMC6562610.

Test: Pharmacokinetic study in mice, single oral dose
Assay type: in vivo, balb/c mice
Conditions: mouse, plasma; balb/c mice, 50 mg/kg, oral gavage, single dose

[
  {
    "compound": "C[C@]12CC[C@H](O)C[C@@H]1CC[C@@H]1[C@@H]2CC[C@@]2(C)[C@H]1CC[C@@H]2[C@](C)(O)CCc1ccc(F)cc1 [Oxy186]",
    "resultUnit": "h",
    "Tmax": 2
  }
]
